B1: TMEM175 (parent)
chain: QTSAFARQPRDELERVRVSCTIIF

# Variants of: B1
# Procedure Details: protein stability index of a GFP-peptide fusion (GPS, HEK-293T) (PSI 1-6); higher = more stable;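 also: lentivirally expressed fusions sorted by FACS into six bins by GFP to DsRed ratio, PSI derived from sequencing read proportions per bin multiplied by bin number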
# Cond: c terminus: a fixed tail appended
Catalogue of variants with associated protein stability index
Could you keep your reply to the number by itself?

Consider the reported protein stability index for these variants:
V18D :: 2.02
T2A :: 1.83
R17F :: 2
L13W :: 2.89
S19P :: 1.6

Kindly consider the entry below.
Determine from records and report protein stability index for P9V
3.32
